system: Zymoseptoria tritici; assay: Test A: preventive spray on wheat seedlings, wheat leaf blotch disease rating; type: in vivo; conditions: 50 ppm, 100 = 100% disease control, 0 = no control
Could you please mark Met for values of Test A disease control rating below 70% and Not met for values at or above it?

Sample answers from the record:
In [3]: df
Out[3]:
                          compoundstructure  classassignment
0  COc1cc(OC)cc(-c2c(-c3c(F)cc(F)cc3F)noc(=O)c2C)c1          Not met
1  CCOC(=O)c1nn(-c2cc(OC)cc(OC)c2)c(-c2ccc(F)cc2)c(C(=O)OCC)c1=O              Met
2  COc1cc(OC)cc(-c2cc(C#N)c(=O)n(C)c2-c2ccc(F)cc2Cl)c1              Met
3  COc1cc(OC)c(Cl)c(-n2nc(C#N)c(=O)c(C)c2-c2ccc(F)cc2Cl)c1          Not met
4  CCOC(=O)c1nn(-c2cc(OC)ccc2Cl)c(-c2ccc(F)cc2)c(C(=O)OCC)c1=O              Met

Is it true that Test A disease control rating reported for COc1cc(OC)c(Cl)c(-n2nc(CF)c(=O)c(C)c2-c2ccc(F)cc2Cl)c1 is less than 70%?
Not met

Is it true that Test A disease control rating reported for COc1ccc(Cl)c(-c2nn(C)c(=O)c(C)c2-c2ccsc2C)c1 is less than 70%?
Not met

* * *

Would you mind telling me the reported pest or weed control at 50 ppm of each entry?
system: Zymoseptoria tritici; assay: Test A: preventive spray on wheat seedlings, wheat leaf blotch disease rating; format: in vivo; conditions: Zymoseptoria tritici, 456 h, 50 ppm, 100 = 100% disease control, 0 = no control
Answers are plain numbers, in %.

>>> print(df.to_string())
                                   molecule                     testreadout  valuereported
0  Cc1c(-c2ccc(F)cc2Cl)c(-c2ccsc2Cl)nn(C)c1=O [Compound 7]  pest or weed control at 50 ppm             99

Need pest or weed control at 50 ppm for each of these molecules.
1. COc1cc(OC)cc(-n2c(-c3ccc(F)cc3Cl)c(C)c(=O)n(C)c2=O)c1 [Compound 39]
2. COc1cc(OC)c(Cl)c(-n2c(-c3ccc(F)cc3Cl)c(C)c(=O)n(C)c2=O)c1 [Compound 37]
3. COc1cc(OC)c(Cl)c(-n2c(-c3ccc(F)cc3Cl)c(Cl)c(=O)n(C)c2=O)c1 [Compound 35]
4. Cc1ccncc1-c1nn(C)c(=O)c(Cl)c1-c1ccc(F)cc1Cl [Compound 4]
5. CCc1nc(C)nc(-c2cc(OC)cc(OC)c2Cl)c1-c1c(F)cccc1F [Compound 57]
6. CCn1c(-c2c(F)cc(F)cc2F)c(-c2cc(OC)cc(OC)c2)cc(C#N)c1=O [Compound 69]
7. COc1cc(OC)cc(-n2nc(CO)c(=O)c(C)c2-c2ccc(F)cc2F)c1 [Compound 23]

0
100
100
100
100
100
3

* * *

test system: Botrytis cinerea; experiment: Test E: preventive spray on tomato seedlings, tomato Botrytis disease rating; format: in vivo; conditions: Botrytis cinerea, 120 h, 50 ppm, 100 = 100% disease control, 0 = no control
testReadout: pest or weed control at 50 ppm (%)
One number for each entry, in %.

Solved cases below.
>>> print(df.to_string())
                          compoundstructure  measurementunits  valuereported
0  CCn1c(-c2c(F)cc(F)cc2F)c(-c2cc(OC)cc(OC)c2)cc(C#N)c1=O                 %             93
1  COc1cc(OC)c(Cl)c(-n2c(-c3ccc(F)cc3Cl)cc(=O)n(C)c2=O)c1                 %             88
2  COc1cc(OC)c(Cl)c(-n2nc(CO)c(=O)c(C)c2-c2ccc(F)cc2F)c1                 %             94

Next, consider the following compound.
What value of pest or weed control at 50 ppm has been recorded for this entry: Cc1ccncc1-c1nn(C)c(=O)c(Cl)c1-c1ccc(F)cc1Cl
65
